Sourced from patent US6750223B2

- System: prostate cancer (PC-3 and DU-145)
- PROTOCOL: NCI in vitro anticancer screen, prostate cancer subpanel
- Format: cell-based, human
- EXPERIMENTAL CONDITIONS: Homo sapiens, DU-145; subpanel value; read-out: GI50 Prostate cancer
TEST READOUT: GI50 (µM)
Write down the numeric answer in µM and omit the unit.

I am curious: what GI50 value has been reported for "CO/N=C(\C)c1cccc(Nc2c3ccccc3nc3occc23)c1" ?
17.9

I am curious: what GI50 value has been reported for "CC(=O)c1cccc(Nc2c3ccccc3nc3occc23)c1" ?
12

I am curious: what GI50 value has been reported for C=C1CC(C)(c2ccc(Nc3c4ccccc4nc4occc34)cc2)OC1=O (centres unmarked) ?
1.32

I am curious: what GI50 value has been reported for "C/C(=N\O)c1cccc(Nc2c3ccccc3nc3occc23)c1" ?
16.2

I am curious: what GI50 value has been reported for "CO/N=C(\C)c1ccc(Nc2c3ccccc3nc3occc23)cc1" ?
0.58

I am curious: what GI50 value has been reported for COc1cc(NS(C)(=O)=O)ccc1Nc1c2ccccc2nc2ccccc12 [m-AMSA, reference compound] ?
0.16

I am curious: what GI50 value has been reported for "CC(=O)c1ccc(Nc2c3ccccc3nc3occc23)cc1" ?
0.021

I am curious: what GI50 value has been reported for "Nc1cc(CO)cc(Nc2c3ccccc3nc3occc23)c1" ?
53.6

====

Provide the reported melting point of each item.

I am curious: what melting point value has been reported for "C/C(=N\O)c1cccc(Nc2c3ccccc3nc3occc23)c1" ?
248 to 249 °C

I am curious: what melting point value has been reported for "CC(=O)c1ccc(Nc2c3ccccc3nc3occ(Cl)c23)cc1" ?
245 to 247 °C

I am curious: what melting point value has been reported for "CC(=O)c1ccc(Nc2c3ccccc3nc3occc23)cc1" ?
220 to 221 °C

I am curious: what melting point value has been reported for "CO/N=C(\C)c1ccc(Nc2c3ccccc3nc3occc23)cc1" ?
167 to 168 °C

I am curious: what melting point value has been reported for "Nc1cc(CO)cc(Nc2c3ccccc3nc3occc23)c1" ?
236 to 237 °C

I am curious: what melting point value has been reported for "CC(=O)c1cccc(Nc2c3ccccc3nc3occc23)c1" ?
158 to 159 °C

====

- System: leukemia (CCRF-CEM, HL-60 (TB), K-562, MOLT-4, RPMI-8226, and SR)
- PROTOCOL: NCI in vitro anticancer screen, leukemia subpanel
- Type: cell-based
- EXPERIMENTAL CONDITIONS: Homo sapiens; subpanel value; concentration causing 50% cell growth inhibition; read-out: GI50 Leukemia
TEST READOUT: GI50 (µM)
Write down the numeric answer in µM and omit the unit.

I am curious: what GI50 value has been reported for C=C1CC(C)(c2ccc(Nc3c4ccccc4nc4occc34)cc2)OC1=O (centres unmarked) [Compound 6] ?
0.9

I am curious: what GI50 value has been reported for C/C(=N\O)c1cccc(Nc2c3ccccc3nc3occc23)c1 [Compound 9a] ?
3.64

I am curious: what GI50 value has been reported for COc1cc(NS(C)(=O)=O)ccc1Nc1c2ccccc2nc2ccccc12 [m-AMSA, reference compound] ?
0.1

I am curious: what GI50 value has been reported for Nc1cc(CO)cc(Nc2c3ccccc3nc3occc23)c1 [Compound 4] ?
23

I am curious: what GI50 value has been reported for CO/N=C(\C)c1cccc(Nc2c3ccccc3nc3occc23)c1 [Compound 9b] ?
4.23
